This collection of values is drawn from paper PMC9482650.

Target: T1, HTRA3, P83110
T1 sequence (P83110 354-453, limits assumed, looked up): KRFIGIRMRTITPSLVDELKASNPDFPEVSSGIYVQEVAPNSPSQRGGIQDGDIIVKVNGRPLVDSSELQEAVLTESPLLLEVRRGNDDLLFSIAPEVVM
Experiment: holdup assay
Set-up: key: below the threshold = too weak to quantify, mostly under pKd 3.1 to 4
Settings: plain residues with an end cap or a label only (N-terminal biotin on a linker: ado-ado)
attribute_measured: pKd

                                  binder             observed
0  LPAHHNATRL [SLC34A1, Q06495;Q06495-1]  below the threshold
1            LRSPRTPSEV [OR10G3, Q8NGC4]  below the threshold
2            NHSSSPETTA [TRMT13, Q9NUP7]  below the threshold
3             YRLAQESGLV [ABCC6, O95255]  below the threshold

### Prompt Which pKd is reported for this binder? TSQESEDTYL [TBC1D10A, Q9BXI6]
### Response below the threshold

### Prompt Which pKd is reported for this binder? LPHPHSTTRV [NLGN2, Q8NFZ4]
### Response below the threshold

### Prompt Which pKd is reported for this binder? QKNRKAQEDL [CES3, Q6UWW8]
### Response below the threshold

### Prompt Which pKd is reported for this binder? RRRESYSTTV [EVI5, O60447]
### Response 3.66

### Prompt Which pKd is reported for this binder? SARSRLSSNL [HCN2, Q9UL51]
### Response below the threshold

### Prompt Which pKd is reported for this binder? PPYRHRNTVV [ERBB4, Q15303]
### Response below the threshold

### Prompt Which pKd is reported for this binder? IPLDGETEEL [MYOZ1, Q9NP98]
### Response below the threshold

### Prompt Which pKd is reported for this binder? IKAIVDLTGL [TRAF2, Q12933]
### Response below the threshold
